assay: Stability of compound 10b in mouse plasma at 37 °C (HPLC); format: in vitro ADME; set-up: dose or concentration left out as unconfirmed; conditions: 48 h, read-out: Recovery rate
propertyLabel: recovery at 48 h (%)
Number only, in %; omit the unit.

Req: Please supply the value of reported recovery at 48 h for the item CC1(C)CCC2(C(=O)O)CCC3(C)C(C(OC(=O)CCC(NC(=O)OC(C)(C)C)C(=O)OC(C)(C)C)CC4C5(C)CCC(O)C(C)(C)C5CCC43C)C2C1 (stereo not shown) [Compound 10b]
Resp: 76.6

* * *

Target: FXR (Homo sapiens, UniProt Q96RI1)
Construct: a fusion plasmid of Gal4 DBD-NR-LBD, which included PPARα, PPARβ, PPARγ, RXRα, RXRβ, RXRγ, LXRα, LXRβ, GPBAR, PXR, and FXR
Sequence (Q96RI1 262-486 limits assumed): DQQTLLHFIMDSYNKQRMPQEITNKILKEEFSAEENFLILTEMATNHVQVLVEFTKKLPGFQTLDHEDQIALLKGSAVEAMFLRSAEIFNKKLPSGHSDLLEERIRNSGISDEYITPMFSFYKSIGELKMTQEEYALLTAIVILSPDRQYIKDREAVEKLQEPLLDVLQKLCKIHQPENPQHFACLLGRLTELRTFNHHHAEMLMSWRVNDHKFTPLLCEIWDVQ
Test: Yeast one-hybrid assay of FXR antagonistic activity in HEK-293T cells
Conditions: HEK-293T cells; CDCA (50 μM) as agonist; mean ± SE of three independent tests
Description: Cell counting: HEK-293T cells in logarithmic growth phase were digested with 0.25% trypsin, collected, and centrifuged. […] The cells were then mixed with the medium to prepare a cell suspension and counted on a cell counting plate. Cell plating: A determined number of cells were taken from the cell suspension, diluted with phenol red-free DMEM medium containing 5% fetal bovine serum, and plated at a concentration of 10,000 cells per well (100 µL medium) in a 96-well plate. […]
Overview of reported IC50 across a group of compounds:
Number only, in nM; omit the unit.

{"columns": ["compound", "IC50, nM"],
 "data": [
  ["CCC(C)OC(=O)C(CCC(=O)OC1CC2C3(C)CCC(O)C(C)(C)C3CCC2(C)C2(C)CCC3(C(=O)O)CCC(C)(C)CC3C12)NC(=O)OC(C)(C)C (stereo not drawn) [Compound 20f]", 1010],
  ["CC1(C)CC[C@]2(C(=O)O)CC[C@]3(C)[C@H]([C@H](OC(=O)CC[C@H](NC(=O)OC(C)(C)C)C(=O)O)CC4[C@@]5(C)CC[C@H](O)C(C)(C)C5CC[C@]43C)[C@@H]2C1 (stereo partly drawn) [Compound 11b]", 7650]
]}

Next item in the queue.
Req: Please supply the value of reported IC50 for the item CC1(C)CC[C@]2(C(=O)O)CC[C@]3(C)[C@H]([C@H](OC(=O)CC[C@H](N)C(=O)OC(C)(C)C)CC4[C@@]5(C)CC[C@H](O)C(C)(C)C5CC[C@]43C)[C@@H]2C1 (stereo partly drawn) [Compound 11a]
Resp: 2950
